subject_of_test: BRD4 BD2 protein (Homo sapiens (Human))
experiment_notes: Fluorescence polarization binding affinity (Ki) with BRD4 BD2 protein
recorded_conditions: fluorescence polarization; Ki calculated from IC50
property_measured: pKi
Give bare numbers, as −log10 of the molar value.

Use the examples below as a reference point.
[[record]]
compound = "Cc1cc(NC2CCn3nnc(C)c3-c3ccc(-c4cnn(C)c4)cc32)n(C)n1 (centres unmarked)"
subject_of_test = "BRD4 BD2 protein (Homo sapiens (Human))"
property_measured = "pKi"
recorded_value = 8.15

[[record]]
compound = "Cc1nnn2c1-c1ccc(C3=CCN(C4CCCCC4)CC3)cc1C(Nc1cc(Cl)ccc1F)CC2 (centres unmarked) [BH187, 2,2,2-trifluoroacetate]"
subject_of_test = "BRD4 BD2 protein (Homo sapiens (Human))"
property_measured = "pKi"
recorded_value = 7.54

[[record]]
compound = "Cc1nnn2c1-c1ccc(-c3cnn(C)c3)cc1C(Nc1ccc(CCN(C)C)cc1)CC2 (centres unmarked)"
subject_of_test = "BRD4 BD2 protein (Homo sapiens (Human))"
property_measured = "pKi"
recorded_value = 7.32

[[record]]
compound = "Cc1nnn2c1-c1ccc(C3=CCN(C)CC3)cc1C(Nc1ccccc1Cl)CC2 (centres unmarked) [RD06, 2,2,2-trifluoroacetate]"
subject_of_test = "BRD4 BD2 protein (Homo sapiens (Human))"
property_measured = "pKi"
recorded_value = 7.25

[[record]]
compound = "Cc1nnn2c1-c1ccc(-c3ccc4c(c3)OCO4)cc1C(Nc1ccc(Cl)cc1)CC2 (centres unmarked)"
subject_of_test = "BRD4 BD2 protein (Homo sapiens (Human))"
property_measured = "pKi"
recorded_value = 7.89

[[record]]
compound = "COc1ccc2c(c1)C(Nc1ccccc1)CCc1onc(C)c1-2 (centres unmarked)"
subject_of_test = "BRD4 BD2 protein (Homo sapiens (Human))"
property_measured = "pKi"
recorded_value = 7.25

[[record]]
compound = "Cc1nnn2c1-c1ccc(-c3cnn(C)c3)cc1C(Nc1cccc(OCCO)c1)CC2 (centres unmarked)"
subject_of_test = "BRD4 BD2 protein (Homo sapiens (Human))"
property_measured = "pKi"
recorded_value = 8.22


Measured pKi of Cc1nnn2c1-c1ccc(-c3cnn(C)c3)cc1C(Nc1ccc(O)cc1)CC2 (centres unmarked) : 8.02

* * *

subject_of_test: BRD4 BD2 protein (Homo sapiens (Human))
experiment_notes: Fluorescence polarization binding affinity (Ki) with BRD4 BD2 protein
recorded_conditions: fluorescence polarization; Ki calculated from IC50
property_measured: pKi
Give bare numbers, as −log10 of the molar value.

Use the examples below as a reference point.
[[record]]
molecule = "Cc1nnn2c1-c1ccc(C3=CCN(C(C)C)CC3)cc1[C@H](Nc1cccc(Cl)c1)CC2 [RE13 (R), 2,2,2-trifluoroacetate]"
property_measured = "pKi"
recorded_value = 7.83

[[record]]
molecule = "CCN1CC=C(c2ccc3c(c2)C(Nc2ccc(Cl)cc2)CCn2nnc(C)c2-3)CC1 (stereo not shown) [LD23, 2,2,2-trifluoroacetate]"
property_measured = "pKi"
recorded_value = 7.38


I have 7 molecules here; please give me pKi for each one.
1. Cc1nnn2c1-c1ccc(-c3cnn(C)c3)cc1C(N(C)c1ccc(Cl)cc1)CC2 (stereo not shown)
2. Cc1nnn2c1-c1ccc(-c3cnn(C)c3)cc1C(Nc1ccc3cc[nH]c3c1)CC2 (stereo not shown)
3. Cc1nnn2c1-c1ccc(-c3cnn(C)c3)cc1C(Nc1ccc(C(O)(C(F)(F)F)C(F)(F)F)cc1)CC2 (stereo not shown)
4. COc1ccc2c(c1)C(Nc1ccc(C)cc1)CCc1onc(C)c1-2 (stereo not shown)
5. COc1ccccc1NC1CCn2nnc(C)c2-c2ccc(C3=CCNCC3)cc21 (stereo not shown) [LC158, 2,2,2-trifluoroacetate]
6. Cc1nnn2c1-c1ccc(C3=CCN(C4CCC4)CC3)cc1C(Nc1ccc(F)c(Cl)c1)CC2 (stereo not shown) [BI23, 2,2,2-trifluoroacetate]
7. Cc1nnn2c1-c1ccc(-c3cnn(C)c3)cc1C(Nc1cccc(CCN(C)C)c1)CC2 (stereo not shown)

A)
8.05
8.13
7.42
7.38
7.38
7.24
7.87

I have 2 molecules here; please give me pKi for each one.
1. Cc1nnn2c1-c1ccc(C3=CCN(C4CCCC4)CC3)cc1C(Nc1cccc(S(C)(=O)=O)c1)CC2 (stereo not shown) [BI55, 2,2,2-trifluoroacetate]
2. CC(=O)N1CC=C(c2ccc3c(c2)C(Nc2cccc(Cl)c2F)CCn2nnc(C)c2-3)CC1 (stereo not shown)

A)
6.93
7.92

I have 5 molecules here; please give me pKi for each one.
1. CNC(=O)c1ccc(NC2CCn3nnc(C)c3-c3ccc(-c4cnn(C)c4)cc32)cc1 (stereo not shown)
2. Cc1nnn2c1-c1ccc(-c3cn(C)nn3)cc1C(Nc1ccc(Cl)cc1)CC2 (stereo not shown)
3. Cc1nnn2c1-c1ccc(-c3cnn(C)c3)cc1C(Oc1ccc(Cl)cc1)CC2 (stereo not shown)
4. CC(=O)N1CC=C(c2ccc3c(c2)C(Nc2ccc(Cl)cc2)CCn2nnc(C)c2-3)CC1 (stereo not shown)
5. Cc1nnn2c1-c1ccc(-c3cnn(C)c3)cc1C(Nc1cccc(CC(=O)O)c1)CC2 (stereo not shown)

A)
7.64
7.78
7.77
8.01
7.89

Data origin: patent US12286435B2
